# Test description: Pharmacokinetics of rats
# Type: in vivo
# Measurement conditions: rat, plasma; SD male rats, IV 1 mg/kg; read-out: Clearance rate CL
Kindly supply the reported clearance values for the records listed here.
Give bare numbers, in mL/min/kg.

Guide cases for clearance, answers given:
# Smiles repr, Measure, Reported value
rows = [
    ("CC(C)(O)c1cn2cc(NC(=O)c3coc(-c4ccnc(N)c4F)n3)c(-c3ccccc3)cc2n1", "clearance", 4),
    ("CC(C)(O)c1cn2cc(NC(=O)c3coc(-c4ccnc(N)c4)n3)c(-c3ccccc3)cc2n1", "clearance", 7),
]

Then this compound:
Req: Fill in reported clearance for this entry: "Cc1cc(-c2nc(C(=O)Nc3cn4cc(C(C)(C)O)nc4cc3-c3ccccc3)co2)ccn1"
Resp: 1.1

====

# Test description: Pharmacokinetic study of mice
# Type: in vivo
# Measurement conditions: mouse, plasma; CD-1 male mice, IV 3 mg/kg; read-out: Area under the plasma concentration-time curve AUC0-24h
Measure: AUC(0-t) (µM·h)
One number for each entry, in µM·h.

# Smiles repr, AUC(0-t) (µM·h)
data = [
    ("CC(C)(O)c1cn2cc(NC(=O)c3coc(-c4ccnc(N)c4F)n3)c(-c3ccccc3)cc2n1", 3.77),
]

Value sought for every listed compound: AUC(0-t).
1. CC(C)(O)c1cn2cc(NC(=O)c3coc(-c4ccnc(N)c4)n3)c(-c3ccccc3)cc2n1
2. Cc1cc(-c2nc(C(=O)Nc3cn4cc(C(C)(C)O)nc4cc3-c3ccccc3)co2)ccn1

Resp:
7.67
17.9

====

Kindly supply the reported AUC values for the records listed here.
# Test description: Pharmacokinetic study of mice
# Type: in vivo
# Measurement conditions: mouse, plasma; CD-1 male mice, PO 10 mg/kg; read-out: Area under the plasma concentration-time curve AUC
Answers are plain numbers, in µM·h.

# Molecule, Reported value
rows = [
    ("Cc1cc(-c2nc(C(=O)Nc3cn4cc(C(C)(C)O)nc4cc3-c3ccccc3)co2)ccn1 [WX009]", 48),
    ("CC(C)(O)c1cn2cc(NC(=O)c3coc(-c4ccnc(N)c4F)n3)c(-c3ccccc3)cc2n1 [WX027]", 8.08),
]

Then this molecule:
Req: Fill in reported AUC for this entry: CC(C)(O)c1cn2cc(NC(=O)c3coc(-c4ccnc(N)c4)n3)c(-c3ccccc3)cc2n1 [WX017]
Resp: 10.4

====

# Test description: Pharmacokinetic study of mice
# Format: in vivo
# Measurement conditions: mouse, plasma; CD-1 male mice, IV 3 mg/kg; read-out: Half-life T1/2 (converted)
Measure: half-life

# Smiles repr, half-life
records = [
    ("Cc1cc(-c2nc(C(=O)Nc3cn4cc(C(C)(C)O)nc4cc3-c3ccccc3)co2)ccn1", "8.1 h"),
]

Value sought for every listed compound: half-life.
1. CC(C)(O)c1cn2cc(NC(=O)c3coc(-c4ccnc(N)c4F)n3)c(-c3ccccc3)cc2n1
2. CC(C)(O)c1cn2cc(NC(=O)c3coc(-c4ccnc(N)c4)n3)c(-c3ccccc3)cc2n1

Resp:
1: 1.9 h; 2: 2.3 h

====

# Experimental system: human BTK (Homo sapiens, UniProt Q06187)
# Sequence (Q06187 whole entry): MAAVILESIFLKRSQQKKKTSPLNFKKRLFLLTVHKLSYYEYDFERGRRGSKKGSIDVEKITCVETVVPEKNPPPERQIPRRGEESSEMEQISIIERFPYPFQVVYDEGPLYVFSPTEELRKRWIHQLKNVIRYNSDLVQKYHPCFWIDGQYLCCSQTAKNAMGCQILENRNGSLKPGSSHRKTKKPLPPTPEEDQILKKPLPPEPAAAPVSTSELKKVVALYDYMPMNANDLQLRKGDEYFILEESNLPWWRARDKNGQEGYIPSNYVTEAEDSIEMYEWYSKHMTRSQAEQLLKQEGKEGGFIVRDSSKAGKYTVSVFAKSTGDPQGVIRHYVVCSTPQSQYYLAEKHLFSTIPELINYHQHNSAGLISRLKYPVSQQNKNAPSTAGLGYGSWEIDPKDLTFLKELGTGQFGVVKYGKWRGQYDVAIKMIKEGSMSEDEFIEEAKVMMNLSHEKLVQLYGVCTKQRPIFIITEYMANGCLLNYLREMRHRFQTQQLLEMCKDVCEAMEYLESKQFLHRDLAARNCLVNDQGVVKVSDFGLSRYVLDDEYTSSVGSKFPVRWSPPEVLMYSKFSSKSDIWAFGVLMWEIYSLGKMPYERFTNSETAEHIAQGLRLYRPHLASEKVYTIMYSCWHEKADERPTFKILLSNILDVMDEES
Measure: IC50
Answer format: value, then unit.

Guide cases for IC50, answers given:
# Smiles repr, IC50
data = [
    ("Cc1cc(-c2nc(C(=O)Nc3cn4cc(CCN(C)C)nc4cc3-c3ccccc3)co2)ccn1", "5.6 nM"),
    ("CS(=O)(=O)CCc1cn2cc(NC(=O)c3coc(-c4ccnc(N)c4)n3)c(N3CCCCC3)cc2n1", "1.3 nM"),
    ("Cc1cc(-c2nc(C(=O)Nc3cn4cc(CCC(C)(C)O)nc4cc3N3CCC4(CCOC4)CC3)co2)ccn1", "4.1 nM"),
]

Value sought for every listed compound: IC50.
1. Cc1cc(-c2nc(C(=O)Nc3cn4cc(CCC(C)(C)O)nc4cc3N3CCC4(CC3)COC4)co2)ccn1
2. Cc1cc(-c2nc(C(=O)Nc3cn4cc(C(C)(C)O)nc4cc3-c3ccccn3)co2)ccn1
3. CN(C)CCc1cn2cc(NC(=O)c3coc(-c4ccnc(N)c4)n3)c(-c3ccccc3)cc2n1
4. CNc1cc(-c2nc(C(=O)Nc3cn4cc(C(C)(C)O)nc4cc3-c3ccccc3)co2)ccn1
5. CC(C)(O)CCc1cn2cc(NC(=O)c3coc(-c4ccnc(N)c4)n3)c(N3CCCCC3)cc2n1

Resp:
1. 71 nM
2. 19.8 nM
3. 1.6 nM
4. 1 nM
5. 7.9 nM
